System: CCRF-CEM leukemia
assay: NCI tumour cell line growth inhibition, 48 h
I would appreciate it if you labelled entries true when TGI is 50 µM or higher, otherwise false.

Answered examples (3):
- molecule: "COc1cc(OCc2ccc3nc(-c4ccccc4)c(N)nc3c2)cc(OC)c1OC"
  label-class: "true"
- molecule: "COc1cc2c(cc1OC)-c1ccc3cc4c(cc3c1N(CCN1CCCC1)C2)OCO4"
  label-class: "false"
- molecule: "NC(=O)OCC(COc1ccc(Cl)cc1)OC(=O)c1ccccc1Cl (stereo unspecified)"
  label-class: "false"

**Q:** TGI >= 50 µM for `CC(C)=CCOc1cc(NC(=S)c2ccoc2C)ccc1Cl` ?
**A:** true

**Q:** TGI >= 50 µM for `CC#COP(=O)(OCC)OCC` ?
**A:** true

**Q:** TGI >= 50 µM for `COc1cc2c(cc1OC)-c1[nH]c3ccc(C#N)cc3c1CC(=O)N2` ?
**A:** true

**Q:** TGI >= 50 µM for `CCN(CC)c1ccc(/C=C/c2cc(C)c3ccccc3n2)cc1` ?
**A:** true

**Q:** TGI >= 50 µM for `CCCCc1ccc(Nc2nc(Cl)c3c(ncn3COCCOC(C)=O)n2)cc1` ?
**A:** true

**Q:** TGI >= 50 µM for `CCCCCCn1c(SCC)c2ccccc2c1-c1nc(F)nc(F)n1` ?
**A:** true

**Q:** TGI >= 50 µM for `CCOC(=O)Cc1c[nH]c(=S)[nH]c1=O` ?
**A:** true
